- assay method text: Cmax in ICR mouse at 5 mg/kg, po measured upto 24 hrs by LCMS analysis
- Assay type: ADME, organism-based
- Set-up: dose 5 mg/kg, route oral
- condition label: in vivo
endpoint: Cmax (nM)

Example entries begin here.
C[C@H](Nc1nccc(N2C(=O)OC[C@@H]2[C@H](C)F)n1)c1ncn2c1COc1cc(Cl)ccc1-2 ... 1210
C[C@H](Nc1nccc(N2C(=O)OC[C@@H]2[C@H](C)F)n1)c1ncn2c1CCc1cc(Cl)ccc1-2 ... 932
N#Cc1ccnc(N2C(=O)CC[C@H]2C(=O)N(c2cncc(F)c2)[C@H](C(=O)NC2CC(F)(F)C2)c2ccccc2Cl)c1 [IVOSIDENIB] ... 2260

P: CC(C)[C@H]1COC(=O)N1c1ccnc(N[C@@H](C)c2ncn3c2CCc2cc(C(F)(F)F)ccc2-3)n1
Q: C[C@H](Nc1ncc(F)c(N2C(=O)OC[C@@H]2[C@H](C)F)n1)c1ncn2c1CCc1cc(C(F)(F)F)ccc1-2
R: C[C@H](Nc1nccc(N2C(=O)OC[C@@H]2[C@H](C)F)n1)c1ncn2c1COc1cc(C(F)(F)F)ccc1-2
Order by Cmax, ascending. Please write the labels in the order that was asked for.
P, R, Q
(P: 730 nM, R: 1120 nM, Q: 1700 nM)

====

- assay target: Isocitrate dehydrogenase [NADP] cytoplasmic (Homo sapiens, UniProt O75874, R132C)
- Sequence (O75874 2-414 R132C limits assumed): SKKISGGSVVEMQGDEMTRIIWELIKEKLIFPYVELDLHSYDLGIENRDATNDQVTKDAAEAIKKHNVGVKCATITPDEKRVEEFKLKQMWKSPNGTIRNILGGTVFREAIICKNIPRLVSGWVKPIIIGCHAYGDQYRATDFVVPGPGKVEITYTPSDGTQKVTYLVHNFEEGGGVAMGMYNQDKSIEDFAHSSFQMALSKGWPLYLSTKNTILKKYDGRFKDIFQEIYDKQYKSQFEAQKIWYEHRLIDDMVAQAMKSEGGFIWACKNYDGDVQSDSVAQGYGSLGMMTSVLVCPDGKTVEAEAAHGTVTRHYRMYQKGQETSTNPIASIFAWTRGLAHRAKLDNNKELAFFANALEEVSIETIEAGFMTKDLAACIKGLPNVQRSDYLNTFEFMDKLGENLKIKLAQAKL
- assay method text: Inhibition of recombinant human C-terminal His8-tagged IDH1 R132C mutant expressed in Escherichia coli BL21 assessed as reduction in NADPH consumption using alpha-ketoglutarate as substrate preincubated for 60 mins followed by substrate addition and measured for 60 mins in presence of NADPH by diaphorase/resazurin-based fluorescence assay
pIC50: −log10 of the molar value.
endpoint: pIC50

A: C[C@H](Nc1nccc(N2C(=O)OC[C@@H]2[C@H](C)F)n1)c1ncn2c1COc1cc(Cl)ccc1-2
B: COc1ccc2c(c1)OCc1c([C@H](C)Nc3nccc(N4C(=O)OC[C@@H]4[C@H](C)F)n3)ncn1-2
Please tell me which of the two, A or B , has the higher reported pIC50 value. Write down the label of the entry you select.
A

A: C[C@H](Nc1ncc(F)c(N2C(=O)OC[C@@H]2[C@H](C)F)n1)c1ncn2c1CCc1cc(C(F)(F)F)ccc1-2
B: CC1Cc2c([C@H](C)Nc3nccc(N4C(=O)OC[C@@H]4[C@H](C)F)n3)ncn2-c2ccc(C(F)(F)F)cc21 (stereo partly drawn)
Please tell me which of the two, A or B , has the higher reported pIC50 value. Write down the label of the entry you select.
A
(A: 7.77, B: 7.03)

A: Cc1ccc2c(c1)CCc1c([C@H](C)Nc3nccc(N4C(=O)OC[C@@H]4[C@H](C)F)n3)ncn1-2
B: CC(C)[C@H]1COC(=O)N1c1ccnc(N[C@@H](C)c2ncn3c2CCc2cc(C(F)(F)F)ccc2-3)n1
Returns: the label, A or B , whose recorded pIC50 is the lower number. Write down the label of the entry you select.
A
(A: 7.79, B: 8.03)

P: C[C@H](Nc1nccc(N2C(=O)OC[C@@H]2[C@H](C)F)n1)c1ncn2c1CCc1cc(Cl)ccc1-2
Q: C[C@H](Nc1nccc(N2C(=O)OC[C@@H]2[C@H](C)F)n1)c1ncn2c1COc1cc(C3CC3)ccc1-2
Please tell me which of the two, P or Q , has the higher reported pIC50 value. Write down the label of the entry you select.
P
